Reference for the values: patent US20100135997A1

Target: T1, HLA-A*0201 loaded with the Carcinoembryonic antigen (CEA)-derived … peptide (biotin on the C-terminal biotinylation tag)
T1 construct: Soluble, biotinylated, immobilised on a streptavidin chip
Experiment: Biacore SPR
measurement-kind: koff

- SEQ ID NO 11 (receptor, mutated soluble two domain ILT-2) MAGHLPKPTLWAEPGSVITMDQPVTLRCQGGQETQEYRLYREKKTAPWITRIPQELVKKGQFPIPSITWEHAGRYRCYYGSDTSQWSASSDPLELVVTGVYIKPTLSAQPSPVVNSGGNVTLQCDSQVAFDGFILCKEGEDEHPQCLNSQPHARGSSRAIFSVGPVSPSRRWWYRCYAYVDWFPYEWSLPSDLLELDVDG: ≤ 2 s⁻¹
- SEQ ID NO 21 (receptor, mutated soluble two domain ILT-2) MAGHLPKPTLWAEPGSVITMDQPVTLRCQGGQETQEYRLYREKKTAPWITRIPQELVKKGQFPIPSITWEHAGRYRCYYGSDTSQWSASSDPLELVVTGVYIKPTLSAQPSPVVNSGGNVTLQCDSQVAFDGFILCKEGEDEHPQCLNSQPHARGSSRAIFSVGPVSPSRRWWYRCYAYPWFTPYEWSLPSDLLELDVDG: ≤ 2 s⁻¹

We now examine a further binder.
Task: Can you look up the measured koff of SEQ ID NO 76 (receptor, mutated soluble two domain ILT-2) MGHLPKPTLWAEPGSVITQGSPVTLRCQGGQETQEYRLYREKKTAPWITRIPQELVKKGQFPIPSITWEHAGRYRCYYGTQTAGRSESSDPLELVVTGAYIKPTLSAQPSPVVNSGGNVTLQCDSQVAFDGFILCKEGEDEHPQCLNSQPHARGSSRAIFSVGPVSPSRRWWYRCYAYDSNSPYEWSLPSDLLELLVL for me?
Result: ≤ 2 s⁻¹
